# pKd annotations
# tgt: T1, EsCas13d, nuclease-dead (Eubacterium siraeum, UniProt B0MS50, R295A;H300A;R849A;H854A)
# T1 sequence: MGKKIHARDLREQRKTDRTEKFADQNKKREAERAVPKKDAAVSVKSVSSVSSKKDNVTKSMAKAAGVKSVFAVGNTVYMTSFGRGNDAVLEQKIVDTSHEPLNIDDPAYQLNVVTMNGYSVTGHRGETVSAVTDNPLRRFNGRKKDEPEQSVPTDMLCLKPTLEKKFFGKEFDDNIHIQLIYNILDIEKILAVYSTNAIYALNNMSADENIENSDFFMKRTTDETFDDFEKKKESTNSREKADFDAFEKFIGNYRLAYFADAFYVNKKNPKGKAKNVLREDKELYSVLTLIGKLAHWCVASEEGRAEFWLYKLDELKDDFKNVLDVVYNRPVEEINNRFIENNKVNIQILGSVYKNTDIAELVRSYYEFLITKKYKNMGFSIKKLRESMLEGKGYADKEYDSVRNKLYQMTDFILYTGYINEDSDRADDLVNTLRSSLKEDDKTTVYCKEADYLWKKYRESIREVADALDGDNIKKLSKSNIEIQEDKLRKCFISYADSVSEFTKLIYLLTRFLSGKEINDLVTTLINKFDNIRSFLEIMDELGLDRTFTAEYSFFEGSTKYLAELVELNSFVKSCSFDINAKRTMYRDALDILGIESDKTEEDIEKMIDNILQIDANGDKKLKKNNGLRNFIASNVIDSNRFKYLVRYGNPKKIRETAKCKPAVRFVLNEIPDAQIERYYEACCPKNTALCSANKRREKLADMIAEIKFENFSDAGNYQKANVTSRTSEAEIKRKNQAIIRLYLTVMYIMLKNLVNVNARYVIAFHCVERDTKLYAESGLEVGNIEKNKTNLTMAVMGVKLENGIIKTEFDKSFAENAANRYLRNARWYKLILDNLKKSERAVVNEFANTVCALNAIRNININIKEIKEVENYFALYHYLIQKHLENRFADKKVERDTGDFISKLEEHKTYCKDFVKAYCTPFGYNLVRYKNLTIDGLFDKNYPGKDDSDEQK
# assay_explanation: crRNA (strand 1, pre-loaded); Mg2+; 40 mM Tris-HCl pH 7.5, 150 mM NaCl, 6 mM MgCl2, 1 mM DTT, 0.1% Tween-20, 0.2 mg/ml BSA; 25 C; 10 min per concentration, then washed
# condition_info: tags: His6-TwinStrep-SUMO cleaved; N-terminal SNAP kept (SNAP-Surface 488); label: 3' end held by stalled T7 RNA polymerase
pKd: −log10 of the molar value.

binder: target 3 U7G,A18G (mixed) RNA 1: CACCCGUGCAAAAUUGCAGGGGUCUAAAACGACCUGAAUAUUUCAGAUCAAA RNA 2: GGGAAUGGAUCCACAUCUACGAAUUCGUUUUUGGUCUGAAAUAUGCAGGUCUGCAGAUCGGAAGAGCACACGU
pKd: 7.19

binder: target 2 MT 5'PFS GGA 3'PFS AUG (mixed) RNA 1: CACCCGUGCAAAAUUGCAGGGGUCUAAAACCUUCUCCAAAUUGUUUCAUCCU RNA 2: GGGAAUGGAUCCACAUCUACGAAUUCGGAAGGAUGAAACAAUUUGGAGAAGAUGAGAUCGGAAGAGCACACGU
pKd: 8.01
